# Tested on: PPARg:RXRa 270nM:90nM, anti-RXR (NR concentration 270 nM, RXRa partner concentration 90 nM)
# assay.text: PBM binding z-score (relative to random genomic background probes); higher = stronger binding; sequences stand for … in GC…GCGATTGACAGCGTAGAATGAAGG
Please mark yes (1) if the recorded PBM binding z-score is equal to or greater than 2, and no (0) if it falls below.

Prompt: Evaluate "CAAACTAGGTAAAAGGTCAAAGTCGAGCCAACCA" : PBM binding z-score at minimum 2?
Completion: yes (1)

Prompt: Query "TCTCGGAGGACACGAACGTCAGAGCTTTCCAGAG" next
Completion: no (0)

Prompt: Query "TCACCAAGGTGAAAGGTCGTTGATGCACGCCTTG" next
Completion: yes (1)

Prompt: Query "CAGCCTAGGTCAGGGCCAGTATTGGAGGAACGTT" next
Completion: no (0)

Prompt: Query "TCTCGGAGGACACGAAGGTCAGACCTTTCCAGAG" next
Completion: no (0)

Prompt: Query "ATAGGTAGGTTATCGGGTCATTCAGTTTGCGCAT" next
Completion: yes (1)

Prompt: Query "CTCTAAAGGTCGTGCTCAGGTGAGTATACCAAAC" next
Completion: yes (1)

Prompt: Query "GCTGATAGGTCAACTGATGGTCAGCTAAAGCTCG" next
Completion: yes (1)

Prompt: Query "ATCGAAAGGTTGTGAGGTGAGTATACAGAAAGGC" next
Completion: no (0)

Prompt: Query "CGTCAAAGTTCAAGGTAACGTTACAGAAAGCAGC" next
Completion: yes (1)

Prompt: Query "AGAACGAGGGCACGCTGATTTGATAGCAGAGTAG" next
Completion: no (0)

Prompt: Query "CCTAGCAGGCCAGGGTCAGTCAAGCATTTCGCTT" next
Completion: no (0)

Prompt: Query "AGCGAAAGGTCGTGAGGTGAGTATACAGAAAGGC" next
Completion: yes (1)

Prompt: Query "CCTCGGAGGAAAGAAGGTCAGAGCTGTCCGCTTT" next
Completion: no (0)

Prompt: Query "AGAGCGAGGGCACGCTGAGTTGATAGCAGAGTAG" next
Completion: no (0)

Prompt: Query "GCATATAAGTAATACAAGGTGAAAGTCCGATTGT" next
Completion: no (0)

Prompt: Query "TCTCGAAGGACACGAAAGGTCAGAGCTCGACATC" next
Completion: yes (1)

Prompt: Query "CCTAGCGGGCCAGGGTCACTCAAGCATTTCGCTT" next
Completion: no (0)

Prompt: Query "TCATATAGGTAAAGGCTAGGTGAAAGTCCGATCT" next
Completion: yes (1)

Prompt: Query "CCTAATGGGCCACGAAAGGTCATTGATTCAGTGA" next
Completion: yes (1)

Prompt: Query "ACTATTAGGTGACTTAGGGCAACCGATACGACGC" next
Completion: no (0)

Prompt: Query "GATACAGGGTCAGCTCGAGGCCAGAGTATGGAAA" next
Completion: yes (1)

Prompt: Query "CGAACTCGGTCAGAACAGGACAGTGAAGGATGAT" next
Completion: no (0)

Prompt: Query "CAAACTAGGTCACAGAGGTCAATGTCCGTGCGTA" next
Completion: yes (1)

Prompt: Query "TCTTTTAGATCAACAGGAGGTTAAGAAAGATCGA" next
Completion: yes (1)
